testTarget: T1, RSV F glycoprotein (NUF4) (respiratory syncytial virus)
T1 chain 1: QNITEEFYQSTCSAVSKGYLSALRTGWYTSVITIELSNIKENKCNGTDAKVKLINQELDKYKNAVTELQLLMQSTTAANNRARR
T1 chain 2: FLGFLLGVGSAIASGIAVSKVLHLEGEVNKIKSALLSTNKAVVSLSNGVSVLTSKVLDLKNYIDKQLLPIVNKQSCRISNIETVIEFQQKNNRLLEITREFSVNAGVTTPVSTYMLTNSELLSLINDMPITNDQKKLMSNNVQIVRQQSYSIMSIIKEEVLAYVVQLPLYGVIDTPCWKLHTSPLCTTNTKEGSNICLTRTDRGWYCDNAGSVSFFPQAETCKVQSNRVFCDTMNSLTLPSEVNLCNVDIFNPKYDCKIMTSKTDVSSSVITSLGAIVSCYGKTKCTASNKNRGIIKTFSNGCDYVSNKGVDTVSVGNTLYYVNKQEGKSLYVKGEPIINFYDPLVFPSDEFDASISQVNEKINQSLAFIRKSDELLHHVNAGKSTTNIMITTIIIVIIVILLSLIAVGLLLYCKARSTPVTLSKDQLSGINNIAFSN
protocolDetails: BIAcore, mAb vs NUF4 (2:1)
valueKind: koff (s⁻¹)
Give your result in s⁻¹ as a bare value.

binder: A1e9 (monoclonal antibody) (antibody, V domains shown, mAb with framework and constant regions of SYNAGIS; also called Ale9) VH: QVTLRESGPALVKPTQTLTLTCTFSGFSLSTPGMSVGWIRQPPGKALEWLADIWWDGKKHYNPSLKDRLTISKDTSKNQVVLKVTNMDPADTATYYCARDMIFNWYFDVWGQGTTVTVSS VL: DIQMTQSPSTLSASVGDRVTITCSLSSRVGYMHWYQQKPGKAPKLLIYDTFKLSSGVPSRFSGSGSGTEFTLTISSLQPDDFATYYCFQGSGYPFTFGGGTKVEIK
koff [s⁻¹]: 0.00139
--
binder: A4B4 (monoclonal antibody) (antibody, V domains shown, mAb; also called A4B4/A4B4 (HC/LC)) VH: QVTLRESGPALVKPTQTLTLTCTFSGFSLSTAGMSVGWIRQPPGKALEWLADIWWDDKKHYNPSLKDRLTISKDTSKNQVVLKVTNMDPADTATYYCARDMIFNFYFDVWGQGTTVTVSS VL: DIQMTQSPSTLSASVGDRVTITCSASSRVGYMHWYQQKPGKAPKLLIYDTFFLDSGVPSRFSGSGSGTEFTLTISSLQPDDFATYYCFQGSGYPFTFGGGTKLEIK
koff [s⁻¹]: 0.000401

# next binder below
Dear colleague, I am looking for the recorded koff of the following binder: P11d4 (monoclonal antibody) (antibody, V domains shown, mAb with framework and constant regions of SYNAGIS) VH: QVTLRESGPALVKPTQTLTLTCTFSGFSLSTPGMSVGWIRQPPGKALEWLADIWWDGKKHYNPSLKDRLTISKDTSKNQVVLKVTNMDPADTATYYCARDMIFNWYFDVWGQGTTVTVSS VL: DIQMTQSPSTLSASVGDRVTITCSPSSRVGYMHWYQQKPGKAPKLLIYDTMRLASGVPSRFSGSGSGTEFTLTISSLQPDDFATYYCFQGSGYPFTFGGGTKVEIK 0.00313
